Molecular target: human SGLT1 (Homo sapiens)
Construct: expressed in transfected cells; pcDNA vector)
Sequence (P13866 1-664): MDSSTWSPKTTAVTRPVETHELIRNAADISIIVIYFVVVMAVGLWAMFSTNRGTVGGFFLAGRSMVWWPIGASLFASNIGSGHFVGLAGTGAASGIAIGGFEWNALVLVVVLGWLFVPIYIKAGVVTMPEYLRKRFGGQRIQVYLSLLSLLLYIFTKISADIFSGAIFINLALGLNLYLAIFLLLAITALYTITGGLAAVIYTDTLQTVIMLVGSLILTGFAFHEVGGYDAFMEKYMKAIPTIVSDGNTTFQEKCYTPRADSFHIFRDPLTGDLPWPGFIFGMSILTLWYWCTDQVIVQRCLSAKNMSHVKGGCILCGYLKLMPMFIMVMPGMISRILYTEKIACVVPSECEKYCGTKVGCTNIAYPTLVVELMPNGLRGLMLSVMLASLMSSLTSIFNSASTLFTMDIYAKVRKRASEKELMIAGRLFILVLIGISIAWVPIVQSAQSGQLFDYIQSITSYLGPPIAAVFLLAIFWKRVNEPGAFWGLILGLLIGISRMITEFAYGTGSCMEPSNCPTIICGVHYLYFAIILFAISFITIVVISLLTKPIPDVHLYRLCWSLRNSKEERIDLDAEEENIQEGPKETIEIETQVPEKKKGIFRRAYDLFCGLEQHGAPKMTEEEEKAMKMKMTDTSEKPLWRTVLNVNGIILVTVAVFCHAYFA
Assay: Cell-based assay for sodium-dependent glucose transport (14C-AMG uptake), CHOK-SGLT1
Details: CHO-K1 cells stably expressing human SGLT1; Na-dependent 14C-AMG uptake
Excerpt: Cloning of the human SGLT1 and human SGLT2 cDNAs and construction of the mammalian expression vector: The human SGLT1 cDNA (Genbank M24847) was cloned from human small intestine. Human SGLT2 cDNA (Genbank M95549) was cloned from human kidney. […] Cell-based assay for sodium-dependent glucose transport: Cell lines stably expressing human SGLT1 or SGLT2 were then used for functional analysis of Na+-dependent glucose uptake. […] Plates were counted in a TopCount (Packard, Meriden, Conn.). […]
Measure: IC50 (nM)
Answer format: numeric, nM implied, no suffix.

Examples with answers:
OCC1OC(Oc2cccc3ncn(CCc4ccc5c(c4)CCO5)c23)C(O)C(O)C1O (stereo not shown) = 700
CCc1ccc(Cn2cnc3cc(C)cc(O[C@@H]4O[C@H](CO)[C@@H](O)[C@H](O)[C@H]4O)c32)cc1 = 1120
CCc1ccc(Cn2cnc3cccc(OC4OC(CO)C(O)C(O)C4O)c32)cc1 (stereo not shown) = 1120

Please find the next compound below.
// query So what's the measured IC50 for this one? CCc1ccc(Cn2nnc3cccc(OC4OC(CO)C(O)C(O)C4O)c32)cc1 (stereo not shown)
// result 590
